target: TDP-43 (Homo sapiens, UniProt Q13148 1-414); test: RNA Bind-n-Seq with designed 260-mer pool; 25 mM Tris-HCl, 150 mM KCl, 3 mM MgCl2, BSA (printed 500 mg/mL), 20 units/mL SUPERase IN; pH not stated; 500 nM RNA pool, 1 h, 4 C; TDP-43 5, 50, 500 nM; high values mean tight binding; conditions: protein: recombinant; tags: SBP (GST cleaved off with PreScission; pGEX-GST-SBP)
Sequence (Q13148 whole entry): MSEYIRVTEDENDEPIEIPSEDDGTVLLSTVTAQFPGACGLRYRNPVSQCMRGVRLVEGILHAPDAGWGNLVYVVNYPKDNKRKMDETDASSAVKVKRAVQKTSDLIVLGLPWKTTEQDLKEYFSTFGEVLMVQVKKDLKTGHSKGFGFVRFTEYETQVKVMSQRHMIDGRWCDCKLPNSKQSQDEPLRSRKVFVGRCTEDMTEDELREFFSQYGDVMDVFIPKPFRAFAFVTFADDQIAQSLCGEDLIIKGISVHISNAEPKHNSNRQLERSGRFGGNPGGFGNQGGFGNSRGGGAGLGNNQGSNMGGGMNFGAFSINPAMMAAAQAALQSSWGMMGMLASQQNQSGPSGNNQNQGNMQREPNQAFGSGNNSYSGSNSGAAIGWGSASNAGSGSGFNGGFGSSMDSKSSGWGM
In all, about 9,900 sequences were measured (“r (bound/input frequency ratio)”: median about 0.7, highest 2% from about 6.5 on). The sample as a whole holds a higher share of the highest values than the screen did.
Kindly supply the reported binding signal values for the records listed here.

binder	experimental result
ENSMUSG00000058297.231|Spock2 (ssRNA) RNA: GGGAGUUCUACAGUCCGACGAUCGCUUCGAUAUCCGCAUGCUAAACCAUGCCCCAGACUCUAUUUAAAGCCCUAUAGCAUAUAUGAAUAGAGAACGGUGUAUCUAUCAGAGGGGACCACACUGAGCAGCUAGGCCCUGAUGCCAUGCCUCAGCACGCCCUCAGACCUCCAGGCCGGGUGGAAGGGGCUUUUACCCAGAUGUCCUGUGGGGUUUUGUGUGUCUAUUGCUCCCCACUUCCCCCUCUCAAAGGAAAUUUCCUUGAUAUAUUUGAUGAAGAAUUCCUUACCUGGGCCUCUGAUACCCCUCUUGCGGUCGCACUAGUGUGGAAUUCUCGGGUGUCAAGG	0.453 R (bound/input frequency ratio)

Exercise: Please look up its binding signal: ENSMUSG00000058297.472|Spock2 (ssRNA) RNA: GGGAGUUCUACAGUCCGACGAUCGCUUCGAUAUCCGCAUGCUACUUGUUGCGGGCAGGAGAGGUAGGGCUGUGUUGGAAAGAGUUCAACCAAAUUACGGCAGCACCACAUCUUGCCGAGCCCUGGAGCUGCCCUACUAAGAGCCUCCUUAGCCCUGGGUGCUGGGAAGGAUGGUGUACGUUGGGGAAGUUUGAGGUUGGAGAGAGUAAAUGUGCCUUGAGAGACCACUCAGAGGUCCCAGGAGGAACGGGGGCGGGGCUUAGCCUGGGAGUUCUGGCAGGAGGCAAAGUUGGUGAGAGUCCUGCUCUUGCGGUCGCACUAGUGUGGAAUUCUCGGGUGUCAAGG
Solution: 7.38 R (bound/input frequency ratio)
